Each entry below lists one item and its recorded EC50 value.
System: Hepatitis C virus
protocol_description: Antiviral activity against Hepatitis C virus subtype 1b expressing NS3 Q80K and R155K mutant infected in HuH7 cells after 48 hrs by luciferase reporter assay
Format: functional, organism-based, Hepacivirus hominis
condition: genotype 1b, Huh-7, 48 h
Give the value, in units of nM, as a plain number.

| compound | target_or_system | EC50 / nM |
| --- | --- | --- |
| COc1ccc2c(O[C@@H]3C[C@H]4C(=O)N[C@]5(C(=O)NS(=O)(=O)C6CC6)C[C@H]5/C=C\CCCCN(C)C(=O)[C@@H]4C3)cc(-c3nc(C(C)C)cs3)nc2c1C | Hepatitis C virus | 4650 |

Supply EC50 value. Item: COc1ccc2c(O[C@@H]3C[C@H]4C(=O)N[C@]5(C(=O)O)C[C@H]5/C=C\CCCCC[C@H](NC(=O)OC5CCCC5)C(=O)N4C3)cc(-c3csc(NC(C)C)n3)nc2c1
705

Supply EC50 value. Item: CCC[C@H](NC(=O)[C@@H]1[C@H]2CCC[C@H]2CN1C(=O)[C@@H](NC(=O)[C@@H](NC(=O)c1cnccn1)C1CCCCC1)C(C)(C)C)C(=O)C(=O)NC1CC1
2960

Supply EC50 value. Item: CC(C)(C)NC(=O)N[C@H](C(=O)N1C[C@H]2[C@@H]([C@H]1C(=O)NC(CC1CCC1)C(=O)C(N)=O)C2(C)C)C(C)(C)C (some centres undefined)
1080
